PROCEDURE SUMMARY: Half life in rat at 1 mg/kg, iv and 2 mg/kg, po
Format: ADME, organism-based
EXPERIMENTAL SETUP: in vivo
MEASUREMENT KIND: half-life (h)

Look over these answered cases.
1. N[C@H](Cc1cc(F)ccc1F)C1CCN(c2cncnc2)CC1 :: 0.92
2. Cc1noc(C)c1S(=O)(=O)N(C)[C@H]1CC[C@H]([C@H](N)Cc2cc(F)ccc2F)CC1 :: 3
3. Cc1ccc(N2CCC([C@H](N)Cc3cc(F)ccc3F)CC2)c(C)n1 :: 2.8

P. CN([C@H]1CC[C@H]([C@H](N)Cc2cc(F)ccc2F)CC1)S(=O)(=O)c1ccc(-c2csnn2)cc1
Q. CC(=O)N(C)[C@H]1CC[C@H]([C@H](N)Cc2cc(F)ccc2F)CC1
R. NC(=O)[C@@H]1CCCN([C@H]2CC[C@H]([C@H](N)Cc3cc(F)ccc3F)CC2)C1
Put the items in sequence by half-life, from largest down. Provide the labels, sequenced as the question asks.
P, R, Q

* * *

Dipeptidyl peptidase 9 (Homo sapiens, UniProt Q86TI2) measurements of IC50, listed per entry.
Sequence (Q86TI2 whole entry): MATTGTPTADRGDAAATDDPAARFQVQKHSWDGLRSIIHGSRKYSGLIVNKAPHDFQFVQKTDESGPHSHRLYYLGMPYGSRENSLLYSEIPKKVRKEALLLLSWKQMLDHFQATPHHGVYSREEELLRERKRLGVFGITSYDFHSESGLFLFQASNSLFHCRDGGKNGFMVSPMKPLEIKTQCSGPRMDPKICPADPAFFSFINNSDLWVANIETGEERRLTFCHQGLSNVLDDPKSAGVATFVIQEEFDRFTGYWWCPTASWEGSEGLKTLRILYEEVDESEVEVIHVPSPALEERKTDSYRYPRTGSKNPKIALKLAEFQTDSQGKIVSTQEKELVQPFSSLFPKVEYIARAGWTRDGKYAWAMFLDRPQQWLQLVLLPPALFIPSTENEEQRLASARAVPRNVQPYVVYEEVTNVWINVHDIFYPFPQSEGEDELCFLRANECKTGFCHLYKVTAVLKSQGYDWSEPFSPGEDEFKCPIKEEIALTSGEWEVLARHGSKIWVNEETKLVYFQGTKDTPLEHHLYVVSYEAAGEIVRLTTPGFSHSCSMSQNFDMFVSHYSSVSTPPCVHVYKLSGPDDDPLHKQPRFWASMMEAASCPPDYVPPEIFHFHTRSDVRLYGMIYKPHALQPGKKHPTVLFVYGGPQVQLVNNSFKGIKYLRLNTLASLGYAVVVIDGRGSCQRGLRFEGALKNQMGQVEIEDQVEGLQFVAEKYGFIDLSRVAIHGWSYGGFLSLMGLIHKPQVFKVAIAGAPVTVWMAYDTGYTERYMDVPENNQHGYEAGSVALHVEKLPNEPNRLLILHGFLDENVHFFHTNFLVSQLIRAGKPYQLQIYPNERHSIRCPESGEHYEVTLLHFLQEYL

Look over these answered cases.
1) CN([C@H]1CC[C@H]([C@H](N)Cc2cc(F)ccc2F)CC1)S(=O)(=O)c1ccc(OC(F)(F)F)cc1 :: > 100 µM
2) Cn1cnc(S(=O)(=O)N(C)[C@H]2CC[C@H]([C@H](N)Cc3cc(F)ccc3F)CC2)c1 :: > 100 µM

Here is another compound to look at.
Under Dipeptidyl peptidase 9 (Homo sapiens, UniProt Q86TI2), report IC50 for CCN(C(C)=O)[C@H]1CC[C@H]([C@H](N)Cc2cc(F)ccc2F)CC1
> 100 µM

* * *

PROCEDURE SUMMARY: Clearance in rat at 1 mg/kg, iv and 2 mg/kg, po
Format: ADME, organism-based
EXPERIMENTAL SETUP: in vivo
MEASUREMENT KIND: clearance (mL/min/kg)

Look over these answered cases.
1. CN([C@H]1CC[C@H]([C@H](N)Cc2cc(F)ccc2F)CC1)S(=O)(=O)c1ccc(-c2csnn2)cc1 :: 180
2. Cc1ccc(N2CCC([C@H](N)Cc3cc(F)ccc3F)CC2)c(C)n1 :: 154
3. N[C@H](Cc1cc(F)ccc1F)C1CCN(c2cncnc2)CC1 :: 171
4. CC(=O)N(C)[C@H]1CC[C@H]([C@H](N)Cc2cc(F)ccc2F)CC1 :: 177
5. CN([C@H]1CC[C@H]([C@H](N)Cc2cc(F)ccc2F)CC1)S(=O)(=O)c1cccc(C(N)=O)c1 :: 204

I. Cc1noc(C)c1S(=O)(=O)N(C)[C@H]1CC[C@H]([C@H](N)Cc2cc(F)ccc2F)CC1
II. NC(=O)[C@@H]1CCCN([C@H]2CC[C@H]([C@H](N)Cc3cc(F)ccc3F)CC2)C1
Sorting ascending by clearance, which comes first: I or II ? Pick one and reply with its label.
I
(I: 116 mL/min/kg, II: 201 mL/min/kg)

* * *

PROCEDURE SUMMARY: Cmax in rat at 1 mg/kg, iv and 2 mg/kg, po
Format: ADME, organism-based
EXPERIMENTAL SETUP: in vivo
MEASUREMENT KIND: Cmax (nM)

Look over these answered cases.
1) N[C@H](Cc1cc(F)ccc1F)C1CCN(c2cncnc2)CC1 :: 19
2) Cc1noc(C)c1S(=O)(=O)N(C)[C@H]1CC[C@H]([C@H](N)Cc2cc(F)ccc2F)CC1 :: 32
3) CN([C@H]1CC[C@H]([C@H](N)Cc2cc(F)ccc2F)CC1)S(=O)(=O)c1cccc(C(N)=O)c1 :: 19

P. NC(=O)[C@@H]1CCCN([C@H]2CC[C@H]([C@H](N)Cc3cc(F)ccc3F)CC2)C1
Q. CN([C@H]1CC[C@H]([C@H](N)Cc2cc(F)ccc2F)CC1)S(=O)(=O)c1ccc(-c2csnn2)cc1
R. Cc1ccc(N2CCC([C@H](N)Cc3cc(F)ccc3F)CC2)c(C)n1
S. CC(=O)N(C)[C@H]1CC[C@H]([C@H](N)Cc2cc(F)ccc2F)CC1
Put the items in sequence by Cmax, from largest down. Provide the labels, sequenced as the question asks.
Q, S, R, P

* * *

MEASUREMENT TARGET: Dipeptidyl peptidase 4 (Homo sapiens, UniProt P27487)
Sequence (P27487 whole entry): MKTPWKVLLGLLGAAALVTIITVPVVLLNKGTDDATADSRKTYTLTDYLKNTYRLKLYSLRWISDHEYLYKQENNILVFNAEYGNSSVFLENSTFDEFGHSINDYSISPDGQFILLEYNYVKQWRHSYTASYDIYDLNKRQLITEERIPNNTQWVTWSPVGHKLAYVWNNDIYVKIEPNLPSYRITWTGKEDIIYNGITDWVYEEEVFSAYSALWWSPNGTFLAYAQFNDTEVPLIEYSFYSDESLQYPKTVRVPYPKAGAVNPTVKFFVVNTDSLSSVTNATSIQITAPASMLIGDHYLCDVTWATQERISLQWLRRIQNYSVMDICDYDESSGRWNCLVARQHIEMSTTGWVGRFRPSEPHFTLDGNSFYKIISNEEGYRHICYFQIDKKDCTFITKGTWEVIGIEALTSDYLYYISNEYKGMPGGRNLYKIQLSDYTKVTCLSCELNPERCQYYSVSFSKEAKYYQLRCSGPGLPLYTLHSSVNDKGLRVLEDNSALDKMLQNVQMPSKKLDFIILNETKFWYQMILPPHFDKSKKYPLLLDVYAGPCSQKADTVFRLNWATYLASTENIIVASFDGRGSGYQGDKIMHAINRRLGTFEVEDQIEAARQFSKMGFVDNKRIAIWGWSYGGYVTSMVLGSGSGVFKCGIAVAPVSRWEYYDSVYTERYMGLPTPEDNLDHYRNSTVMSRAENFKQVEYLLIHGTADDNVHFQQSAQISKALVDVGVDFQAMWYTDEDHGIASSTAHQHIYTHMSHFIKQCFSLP
MEASUREMENT KIND: IC50 (nM)

Look over these answered cases.
1. CN([C@H]1CC[C@H]([C@H](N)Cc2cc(F)ccc2F)CC1)S(=O)(=O)c1ccc(OC(F)(F)F)cc1 :: 400
2. CS(=O)(=O)N(CCCC(F)(F)F)[C@H]1CC[C@H]([C@H](N)Cc2cc(F)ccc2F)CC1 :: 2400
3. Cn1cnc(S(=O)(=O)N(C)[C@H]2CC[C@H]([C@H](N)Cc3cc(F)ccc3F)CC2)c1 :: 500

A. CN([C@H]1CC[C@H]([C@H](N)Cc2cc(F)ccc2F)CC1)S(=O)(=O)c1ccc(-c2csnn2)cc1
B. CC(=O)N1CCC([C@H](N)Cc2cc(F)ccc2F)CC1
C. CN([C@H]1CC[C@H]([C@H](N)Cc2cc(F)ccc2F)CC1)S(=O)(=O)c1ccc(C#N)cc1
D. Cc1noc(C)c1S(=O)(=O)N(C)[C@H]1CC[C@H]([C@H](N)Cc2cc(F)ccc2F)CC1
E. N[C@H](Cc1cc(F)ccc1F)[C@H]1CC[C@H](N(CCCC(F)(F)F)Cc2ccccc2)CC1 (mixture of isomers)
Put the items in order so that reported IC50 rises from first to last. Provide the labels, sequenced as the question asks.
D, A, C, B, E
(D: 55 nM, A: 94 nM, C: 180 nM, B: 450 nM, E: 690 nM)

I. CN([C@H]1CC[C@H]([C@H](N)Cc2cc(F)ccc2F)CC1)S(=O)(=O)c1cccc(C#N)c1
II. CN(C(=O)CCC(=O)O)[C@H]1CC[C@H]([C@H](N)Cc2cc(F)ccc2F)CC1
III. CN(Cc1cccc(C#N)c1)[C@H]1CC[C@H]([C@H](N)Cc2cc(F)ccc2F)CC1
IV. N[C@H](Cc1cc(F)ccc1F)[C@H]1CC[C@H](N2CCn3c(nnc3C(F)(F)F)C2)CC1
V. Cc1noc(C)c1S(=O)(=O)N(Cc1ccccc1)[C@H]1CC[C@H]([C@H](N)Cc2cc(F)ccc2F)CC1
Put the items in sequence by IC50, from largest down. Provide the labels, sequenced as the question asks.
V, IV, III, II, I
(V: 670 nM, IV: 330 nM, III: 220 nM, II: 140 nM, I: 85 nM)

I. CC(=O)N(C)[C@H]1CC[C@H]([C@H](N)Cc2cc(F)ccc2F)CC1
II. N[C@H](Cc1cc(F)ccc1F)[C@H]1CC[C@H](N2CCC[C@@H](O)C2)CC1
III. Cc1noc(C)c1S(=O)(=O)N(CCCC(F)(F)F)[C@H]1CC[C@H]([C@H](N)Cc2cc(F)ccc2F)CC1
Put the items in order so that reported IC50 rises from first to last. Provide the labels, sequenced as the question asks.
I, II, III

* * *

MEASUREMENT TARGET: UniProt Q9UHL4
MEASUREMENT KIND: IC50 (µM)

1) CN([C@H]1CC[C@H]([C@H](N)Cc2cc(F)ccc2F)CC1)S(=O)(=O)c1cccc(C#N)c1 :: 9.6
2) Cc1[nH]ncc1S(=O)(=O)N(C)[C@H]1CC[C@H]([C@H](N)Cc2cc(F)ccc2F)CC1 :: 57

a. CCN([C@H]1CC[C@H]([C@H](N)Cc2cc(F)ccc2F)CC1)S(C)(=O)=O
b. CN(Cc1cccc(C#N)c1)[C@H]1CC[C@H]([C@H](N)Cc2cc(F)ccc2F)CC1
Sorting ascending by IC50, which comes first: a or b ? Pick one and reply with its label.
b
(b: 14 µM, a: 68 µM)

Source of measurements: ChEMBL document CHEMBL1681733
